# Test system: c-Abl (mouse)
# assay-text: phosphorylation enrichment, bacterial display (enrichment ratio); higher = better substrate or ligand; peptides without Tyr show the background
recorded-endpoint: phosphorylation enrichment
Field format: numeric only.

sequence_data="KHCEDYVCSYN [DSC1_Y846]" target_system="c-Abl (mouse)" obs_value=0.771
sequence_data="CTTIHNNYMCN [TP53_Y234_Y234N]" target_system="c-Abl (mouse)" obs_value=0.63
sequence_data="RALLNYIASKY [GSTA3_Y74_I71L]" target_system="c-Abl (mouse)" obs_value=0.578

For the sequence SLALFYRNVYH [RBL1_Y792_K794N] , give its reported phosphorylation enrichment.
0.576

Fill in reported phosphorylation enrichment for this entry: QAKRKYQEVSK [FES_Y156_A159V]
0.326

Give phosphorylation enrichment for the following sequence: AGREEYSAMRD [KRAS_Y64_Q61R]
0.655

Complete the entry with phosphorylation enrichment for LDAGEYCVPRG [BEX1_Y43]
3.62

Identify measured phosphorylation enrichment corresponding to SILTVYSKDNY [PANK2_Y400_A398T]
0.639

Retrieve phosphorylation enrichment measured for YSSLGYPLPEG [ZSWIM4_Y87_P89L] and print it.
0.978

Assign phosphorylation enrichment to the following record: CTTILYNYMCN [TP53_Y234_H233L]
0.615

----------
The following sequences are shown together with reported phosphorylation enrichment values.
# target-system: EPHB2 (UniProt P29323)
# Sequence (P29323 whole entry, looked up): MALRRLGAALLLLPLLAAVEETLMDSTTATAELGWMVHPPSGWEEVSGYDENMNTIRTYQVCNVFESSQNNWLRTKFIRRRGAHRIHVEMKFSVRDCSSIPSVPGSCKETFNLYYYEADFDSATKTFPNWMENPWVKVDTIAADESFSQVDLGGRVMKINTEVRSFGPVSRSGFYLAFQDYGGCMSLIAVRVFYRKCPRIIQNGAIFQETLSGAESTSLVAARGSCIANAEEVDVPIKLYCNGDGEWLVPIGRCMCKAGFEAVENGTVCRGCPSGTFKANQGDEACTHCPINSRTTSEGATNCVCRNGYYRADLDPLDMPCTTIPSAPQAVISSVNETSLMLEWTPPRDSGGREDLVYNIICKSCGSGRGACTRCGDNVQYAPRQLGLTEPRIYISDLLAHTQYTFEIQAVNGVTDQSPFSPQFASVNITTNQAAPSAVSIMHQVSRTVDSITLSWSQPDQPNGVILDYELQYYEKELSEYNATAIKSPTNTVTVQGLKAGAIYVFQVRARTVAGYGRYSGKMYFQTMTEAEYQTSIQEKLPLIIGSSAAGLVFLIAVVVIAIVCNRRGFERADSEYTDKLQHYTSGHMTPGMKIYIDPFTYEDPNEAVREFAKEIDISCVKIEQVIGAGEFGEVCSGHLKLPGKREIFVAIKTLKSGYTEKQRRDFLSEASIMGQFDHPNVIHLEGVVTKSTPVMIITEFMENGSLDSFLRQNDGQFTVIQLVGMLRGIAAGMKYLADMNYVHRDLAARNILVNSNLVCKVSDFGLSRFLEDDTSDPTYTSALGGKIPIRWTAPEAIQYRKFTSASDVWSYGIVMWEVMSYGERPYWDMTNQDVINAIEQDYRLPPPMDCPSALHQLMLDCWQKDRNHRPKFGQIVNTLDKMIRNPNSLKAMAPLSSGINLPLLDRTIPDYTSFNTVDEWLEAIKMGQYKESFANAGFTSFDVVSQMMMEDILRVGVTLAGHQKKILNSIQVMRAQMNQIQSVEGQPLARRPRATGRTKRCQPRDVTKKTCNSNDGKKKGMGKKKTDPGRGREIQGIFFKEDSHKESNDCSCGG
# assay-text: phosphorylation enrichment, bacterial display (enrichment ratio); higher = better substrate or ligand; peptides without Tyr show the background

Past entries and their recorded results:
sequence_data="CIILLYIFLKN [STXBP1_Y411_R406C]" obs_value=0.275
sequence_data="TNYCLYLRSLE [MTM1_Y71_R69C]" obs_value=1.52
sequence_data="KMGNEYVTKGQ [MYH7_Y410_V406M]" obs_value=0.353

API: the following record is the query input.
Specify phosphorylation enrichment for LKVKAYRFSIS [LCT_Y974] and stop.
0.498

----------
# target-system: FGFR1 (UniProt P11362)
# Sequence (P11362 whole entry, looked up): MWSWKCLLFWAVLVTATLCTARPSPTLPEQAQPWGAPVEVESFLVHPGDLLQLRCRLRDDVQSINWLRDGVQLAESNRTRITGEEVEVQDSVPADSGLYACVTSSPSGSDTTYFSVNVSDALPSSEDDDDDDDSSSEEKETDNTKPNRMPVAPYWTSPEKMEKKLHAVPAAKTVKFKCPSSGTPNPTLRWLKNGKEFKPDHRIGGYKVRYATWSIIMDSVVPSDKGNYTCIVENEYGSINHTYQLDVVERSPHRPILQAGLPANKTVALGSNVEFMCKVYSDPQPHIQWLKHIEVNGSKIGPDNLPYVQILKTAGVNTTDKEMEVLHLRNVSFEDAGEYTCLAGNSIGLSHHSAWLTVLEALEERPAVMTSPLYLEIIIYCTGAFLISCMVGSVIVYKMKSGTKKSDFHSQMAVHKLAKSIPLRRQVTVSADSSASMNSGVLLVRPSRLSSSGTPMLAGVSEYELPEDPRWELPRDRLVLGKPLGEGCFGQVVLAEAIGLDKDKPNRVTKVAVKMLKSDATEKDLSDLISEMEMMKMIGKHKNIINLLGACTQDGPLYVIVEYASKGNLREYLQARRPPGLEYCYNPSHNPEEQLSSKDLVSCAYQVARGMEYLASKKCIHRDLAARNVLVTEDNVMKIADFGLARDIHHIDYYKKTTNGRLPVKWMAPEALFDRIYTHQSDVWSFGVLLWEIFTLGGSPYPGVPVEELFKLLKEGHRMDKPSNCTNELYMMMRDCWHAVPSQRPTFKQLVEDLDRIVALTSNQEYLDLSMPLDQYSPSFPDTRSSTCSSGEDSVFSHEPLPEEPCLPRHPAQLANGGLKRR
# assay-text: phosphorylation enrichment, bacterial display (enrichment ratio); higher = better substrate or ligand; peptides without Tyr show the background
Attribute: phosphorylation enrichment
Could you respond with only the numeric value?

See these solved cases before continuing.
sequence_data="FRQNVYIPGSN [PCDHGA1_Y895_YF]" obs_value=0.416
sequence_data="RVAFQYGVTDL [MYBPC3_Y340_I336V]" obs_value=0.456
sequence_data="PESCLYKESWI [IQGAP2_Y630_L635I]" obs_value=1.25

Input DGDTRYSTFSE [TKTL1_Y318] , output reported phosphorylation enrichment.
0.41

Hello, please tell me recorded phosphorylation enrichment for this one: RFLERYIFNRE [HLA-DPB1_Y57_YF]
0.329

----------
# target-system: c-Src SH2;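 note: peptide library displayed on the E. coli surface as eCPX fusions, selected cells deep-sequenced, score is each peptide's frequency after selection divided by its frequency in the input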
# assay-text: SH2 binding enrichment of the phosphorylated peptide, bacterial display (enrichment ratio); higher = better substrate or ligand; peptides without Tyr show the background
criterion met means recorded SH2 binding enrichment is 0.6 or above; criterion not met means it is below 0.6.

sequence_data="PRLMLYNPTTY [EGFR_Y270_P266R]" class="criterion met"

Identify whether the reported SH2 binding enrichment of the following sequence is 0.6 or greater: FPAVGYHKPHI [IDS_Y225_L221P]
criterion met

SH2 binding enrichment >= 0.6 for IEEGTYGVVYR [CDK11B_Y449] ?
criterion not met

In plain terms: is recorded SH2 binding enrichment at least 0.6 for KNILCYIQGGS [HYDIN_Y4610] ?
criterion not met

Say whether IGEGTYGVLYK [CDK2_Y15_V18L] shows SH2 binding enrichment of 0.6 or more.
criterion not met

Is the recorded value of SH2 binding enrichment equal to or greater than 0.6 for this sequence? ADKSAYLMGLN [MYH7_Y386]
criterion not met

Form field: SH2 binding enrichment at least 0.6? Entry: ADARMYGVHPW [PLP1_Y207_L210H]
criterion not met

Does MEIHAYRKLSE [LMNA_Y376_L380S] have a reported SH2 binding enrichment of at least 0.6?
criterion not met

Threshold query (SH2 binding enrichment >= 0.6) on ALVDTYCRHNY [HLA-DRB1_Y107_A103L]
criterion not met

Check this sequence for SH2 binding enrichment at or above 0.6: EEQKRYYNAMK [SCN5A_Y1494_K1493R]
criterion met

Check this sequence for SH2 binding enrichment at or above 0.6: KLKRSYSSRDI [USP8_Y717_P720R]
criterion not met

Does DMLTLYVNTAA [SMCHD1_Y403_Q400L] have a reported SH2 binding enrichment of at least 0.6?
criterion met

# bool: SH2 binding enrichment of PQGVGYPPQQQ [EP300_Y2219] >= 0.6
criterion not met

Please tell me: is the sequence STFVPYEIKVQ [L1CAM_Y784] at or over 0.6 in terms of SH2 binding enrichment?
criterion not met

Is SH2 binding enrichment at least 0.6? Consider FQSKHYACIRQ [TIMP3_Y182_YF]
criterion met

Could you verify whether the entry SHNELYYEEAE [VANGL1_Y344] shows SH2 binding enrichment of no less than 0.6?
criterion met

Does SH2 binding enrichment meet or surpass 0.6 for KKRSVYLKVLF [CC2D2A_Y683] ?
criterion met
